assay: Plasma protein binding in beagle dog at 1 mg/kg, po administered as cassette dosing
Assay type: ADME, organism-based, Canis lupus familiaris
applied-conditions: read-out: PPB (converted)
measured-attribute: fraction unbound

A = COc1cccc(CNC(=O)c2cc(-c3nnn(C[C@H]4CO[C@H](CO)CO4)n3)cc(C)n2)c1 (racemic)
B = COc1cccc(CNC(=O)c2cc(-c3nnn(C[C@H]4CO[C@H](CO)CO4)n3)nc(C)n2)c1 (racemic)
**Q:** Kindly compare A with B and tell me which has the lower fraction unbound figure. The response must carry the label of the picked entry.
**A:** A
(A: 0.24, B: 0.37)

###

assayed-target: CYP2C9 (Homo sapiens, UniProt P11712)
Sequence (P11712 whole entry): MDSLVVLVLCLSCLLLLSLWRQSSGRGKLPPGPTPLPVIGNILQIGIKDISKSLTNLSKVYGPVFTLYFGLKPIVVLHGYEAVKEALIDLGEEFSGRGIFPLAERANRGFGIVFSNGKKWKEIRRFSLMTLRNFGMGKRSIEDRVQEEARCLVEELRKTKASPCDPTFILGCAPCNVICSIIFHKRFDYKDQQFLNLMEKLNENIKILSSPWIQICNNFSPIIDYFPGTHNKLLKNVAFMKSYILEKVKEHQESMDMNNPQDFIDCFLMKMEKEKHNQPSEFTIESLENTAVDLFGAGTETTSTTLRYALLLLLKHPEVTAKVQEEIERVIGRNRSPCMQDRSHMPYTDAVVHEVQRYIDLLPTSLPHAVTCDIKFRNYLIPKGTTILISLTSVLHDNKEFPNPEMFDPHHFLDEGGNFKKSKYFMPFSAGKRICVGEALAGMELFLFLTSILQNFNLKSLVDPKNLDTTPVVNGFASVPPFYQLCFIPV
assay: Inhibition of CYP2C9 in human liver microsomes assessed as reduction of diclofenac metabolism at 3 uM after 8 mins
Type: ADME
applied-conditions: probe diclofenac
measured-attribute: inhibition at 8 min, 3 µM (%)

The examples below pair each entry with its known result.
COc1cccc(CNC(=O)c2cc(-c3nnn(C[C@H]4CC[C@H](CO)CC4)n3)cc(C)n2)c1    66
Cc1cc(-c2nnn(C[C@H]3CC[C@H](CO)CC3)n2)cc(C(=O)NCc2ccc(F)c(C(F)(F)F)c2)n1    90
Cc1cc(-c2nnn(C[C@H]3CC[C@H](CO)CC3)n2)cc(C(=O)NCc2cccc(C(F)(F)F)c2)n1    94
Cc1cc(-c2nnn(C[C@H]3CC[C@H](CO)CC3)n2)cc(C(=O)NCc2ccc(F)c(Cl)c2)n1    90
Cc1cccc(CNC(=O)c2cc(-c3nnn(C[C@H]4CC[C@H](CO)CC4)n3)cc(C)n2)c1    93
Cc1cc(-c2nnn(C[C@H]3CC[C@H](CO)CC3)n2)cc(C(=O)NCc2ccc(F)c(C)c2)n1    96
Cc1cc(-c2nnn(C[C@H]3CC[C@H](CO)CC3)n2)cc(C(=O)NCc2ccccc2)n1    78

P = Cc1cc(-c2nnn(C[C@H]3CC[C@H](CO)CC3)n2)cc(C(=O)NCc2ccc(F)c(F)c2)n1
Q = Cc1cc(-c2nnn(C[C@H]3CC[C@H](CO)CC3)n2)cc(C(=O)NCc2ccc(F)cc2)n1
R = COc1cc(CNC(=O)c2cc(-c3nnn(C[C@H]4CC[C@H](CO)CC4)n3)cc(C)n2)ccc1F
**Q:** Hello, I need these entries ordered by inhibition at 8 min, 3 µM, highest reading first. Thanks! Please list each label once, in the requested order.
**A:** P, Q, R
(P: 83%, Q: 56%, R: 39%)

###

assay: Oral bioavailability in Sprague-Dawley rat at 1 mg/kg
Type: ADME, organism-based
applied-conditions: in vivo
measured-attribute: bioavailability (%)

The examples below pair each entry with its known result.
COc1cc(CNC(=O)c2cc(-c3nnn(C[C@H]4CO[C@H](CO)CO4)n3)nc(C)n2)ccc1F    95
COc1cccc(CNC(=O)c2cc(-c3nnn(C[C@H]4CO[C@H](CO)CO4)n3)nc(C)n2)c1 (racemic)    65

I = COc1cccc(CNC(=O)c2cc(-c3nnn(C[C@H]4CO[C@H](CO)CO4)n3)cc(C)n2)c1 (racemic)
II = COc1cc(CNC(=O)c2cc(-c3nnn(C[C@@H]4CO[C@@H](CO)CO4)n3)nc(C)n2)ccc1F
**Q:** Please tell me which of the two, I or II , has the higher reported bioavailability value. The response must carry the label of the picked entry.
**A:** II
(II: 113%, I: 48%)
